Assay: Body weight / toxicity of a single intraperitoneal injection in HCT-116 colon tumor-bearing nude mice
Details: Day 11; single IP injection (QD×1); D1 and D2 400 mg/kg, D3 350 mg/kg, D4 300 mg/kg
Record form. Attribute: Average rate of weight change of the animals. Fill in for each entry.
Please report the result as a number followed by the unit.

Query: For the compound O=C(CCCC(=O)OC[C@H]1O[C@@H](n2ccc(NC(=O)OCc3ccccc3)nc2=O)C(F)(F)[C@@H]1O)OC[C@H]1O[C@@H](n2ccc(NC(=O)OCc3ccccc3)nc2=O)C(F)(F)[C@@H]1O , report Average rate of weight change of the animals.
Response: 6.38 ± 1.68 %

Query: For the compound CCCCOC(=O)Nc1ccn(C2OC(COC(=O)CCCC(=O)OC[C@H]3O[C@@H](n4ccc(NC(=O)OCCCC)nc4=O)C(F)(F)[C@@H]3OC(=O)OCCCC)C(OC(=O)OCCCC)C2(F)F)c(=O)n1 (stereo in doubt) [Compound D1] , report Average rate of weight change of the animals.
Response: 2.77 ± 4.27%

Query: For the compound CCCCOC(=O)Nc1ccn([C@H]2O[C@@H](COC(=O)CCC(=O)OC[C@H]3O[C@@H](n4ccc(NC(=O)OCCCC)nc4=O)C(F)(F)[C@@H]3O)[C@H](O)C2(F)F)c(=O)n1 (stereo in doubt) [Compound D2] , report Average rate of weight change of the animals.
Response: 2.72 ± 1.85%

Query: For the compound CCCCOC(=O)Nc1ccn(C2OC(COC(=O)CCC(=O)OC[C@H]3O[C@@H](n4ccc(NC(=O)OCc5ccccc5)nc4=O)C(F)(F)[C@@H]3O)C(O)C2(F)F)c(=O)n1 (stereo in doubt) , report Average rate of weight change of the animals.
Response: 4.47 ± 0.52 %
